The following binders are shown together with reported OD at 560 nm values.
- SYSTEM: T1, human ANGPTL3 (human, UniProt Q9Y5C1 17-460)
- T1 construct: Biotinylated in the ELISA assays; also called hANGPTL3; free ANGPTL3
- T1 sequence: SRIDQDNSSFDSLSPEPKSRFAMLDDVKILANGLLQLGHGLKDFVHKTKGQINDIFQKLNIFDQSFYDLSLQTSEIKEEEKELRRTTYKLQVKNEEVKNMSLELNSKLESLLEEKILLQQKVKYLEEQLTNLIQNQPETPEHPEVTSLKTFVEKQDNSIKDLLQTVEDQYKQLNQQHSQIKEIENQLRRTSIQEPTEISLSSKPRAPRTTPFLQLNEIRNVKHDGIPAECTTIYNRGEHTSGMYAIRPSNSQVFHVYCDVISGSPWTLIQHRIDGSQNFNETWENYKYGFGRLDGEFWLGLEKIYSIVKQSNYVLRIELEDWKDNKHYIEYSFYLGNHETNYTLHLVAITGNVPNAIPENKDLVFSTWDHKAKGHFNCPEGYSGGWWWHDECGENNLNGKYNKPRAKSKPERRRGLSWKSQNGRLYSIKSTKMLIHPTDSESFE
- TEST DETAILS: ELISA; Ab captured by anti-human Fc; biotinylated antigen at 0.412 nM
Record the value in OD 560 nm, omitting the unit from your answer.

BINDER	OBSERVATION TYPE	READING UNIT	OBS VALUE
Ab with LC variant having a E99Q mutation (SEQ ID NO:25) and a HC of SEQ ID NO:6 (antibody, human IgG4 S228P, kappa, F234A L235A, V domains shown, also called E99Q Variant Ab; E99Q Ab) VH: QVTLKESGPTLVKPTQTLTLTCTFSGFSLSISGVGVGWIRQPPGKALEWLALIYRNDDKRYSPSLKSRLTITKDTSKNQVVLTLTNMDPVDTATYYCARTYSSGWYGNWFDPWGQGTLVTVSS VL: DIVMTQTPLSLPVTPGEPASISCRSSQSLLDSDDGNTYLDWYLQKPGQSPQLLIYMLSYRASGVPDRFSGSGSGTDFTLKISRVEAEDVGIYYCMQRIQFPLTFGGGTKVEIKR	OD at 560 nm	OD 560 nm	0.058
anti-ANGPTL3/8 complex Ab having a LC of SEQ ID NO:5 and a HC of SEQ ID NO:6 (antibody, human IgG4 S228P, kappa, F234A L235A, V domains shown, In the ELISA assays tested as IgG from CHO supernatants; also called the Ab) VH: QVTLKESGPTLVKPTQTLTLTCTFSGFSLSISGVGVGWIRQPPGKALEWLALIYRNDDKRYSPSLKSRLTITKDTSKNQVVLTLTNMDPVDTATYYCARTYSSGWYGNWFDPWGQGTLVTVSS VL: DIVMTQTPLSLPVTPGEPASISCRSSQSLLDSDDGNTYLDWYLQKPGQSPQLLIYMLSYRASGVPDRFSGSGSGTDFTLKISRVEAEDVGIYYCMQRIEFPLTFGGGTKVEIKR	OD at 560 nm	OD 560 nm	0.043

Attention now turns to another entry.
Challenge: Report OD at 560 nm for Ab with LC variant having a D33A mutation (SEQ ID NO:22) and a HC of SEQ ID NO:6 (antibody, human IgG4 S228P, kappa, F234A L235A, V domains shown, also called D33A Variant Ab; D33A Ab) VH: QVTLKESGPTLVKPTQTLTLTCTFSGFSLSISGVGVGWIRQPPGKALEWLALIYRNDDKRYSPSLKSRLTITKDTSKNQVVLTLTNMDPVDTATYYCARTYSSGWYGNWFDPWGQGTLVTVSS VL: DIVMTQTPLSLPVTPGEPASISCRSSQSLLDSADGNTYLDWYLQKPGQSPQLLIYMLSYRASGVPDRFSGSGSGTDFTLKISRVEAEDVGIYYCMQRIEFPLTFGGGTKVEIKR please.
Response given: 0.056
